# Study target: MAP kinase-activated protein kinase 2 (Homo sapiens);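 further: figures are mean inhibition values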
# Measurement conditions: at 0.1 µM
Parameter: inhibition. Scope: all listed entries.
Parameter: inhibition (%)

{"Compound": "O=C1Nc2ccc(C(=O)c3ccco3)cc2C1=Cc1cc(Cl)c(O)c(Cl)c1", "Units text": "%", "Recorded value": 1.24}
{"Compound": "CC1=C(C(=O)Nc2ccc3[nH]ncc3c2)C(c2ccc(Cl)c(Cl)c2)CC(=O)N1 (stereo not given)", "Units text": "%", "Recorded value": 0.89}
{"Compound": "COc1cc2ncn(-c3cc(OCc4ccccc4Cl)c(C(N)=O)s3)c2cc1OC", "Units text": "%", "Recorded value": -2.81}
{"Compound": "Cc1nn(C)c2cc(N(C)c3ccnc(Nc4cccc(S(N)(=O)=O)c4)n3)ccc12", "Units text": "%", "Recorded value": 3.83}
{"Compound": "COc1ccc(-c2nn3ncccc3c2-c2ccnc(Nc3ccc(Cl)c(C(F)(F)F)c3)n2)cc1", "Units text": "%", "Recorded value": 1.23}

###

# Study target: Mitogen-activated protein kinase kinase kinase kinase 2 (Homo sapiens) (UniProt Q12851);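 further: reported value is a mean of MAP4K2 inhibition at 1 µM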
# Sequence (whole entry): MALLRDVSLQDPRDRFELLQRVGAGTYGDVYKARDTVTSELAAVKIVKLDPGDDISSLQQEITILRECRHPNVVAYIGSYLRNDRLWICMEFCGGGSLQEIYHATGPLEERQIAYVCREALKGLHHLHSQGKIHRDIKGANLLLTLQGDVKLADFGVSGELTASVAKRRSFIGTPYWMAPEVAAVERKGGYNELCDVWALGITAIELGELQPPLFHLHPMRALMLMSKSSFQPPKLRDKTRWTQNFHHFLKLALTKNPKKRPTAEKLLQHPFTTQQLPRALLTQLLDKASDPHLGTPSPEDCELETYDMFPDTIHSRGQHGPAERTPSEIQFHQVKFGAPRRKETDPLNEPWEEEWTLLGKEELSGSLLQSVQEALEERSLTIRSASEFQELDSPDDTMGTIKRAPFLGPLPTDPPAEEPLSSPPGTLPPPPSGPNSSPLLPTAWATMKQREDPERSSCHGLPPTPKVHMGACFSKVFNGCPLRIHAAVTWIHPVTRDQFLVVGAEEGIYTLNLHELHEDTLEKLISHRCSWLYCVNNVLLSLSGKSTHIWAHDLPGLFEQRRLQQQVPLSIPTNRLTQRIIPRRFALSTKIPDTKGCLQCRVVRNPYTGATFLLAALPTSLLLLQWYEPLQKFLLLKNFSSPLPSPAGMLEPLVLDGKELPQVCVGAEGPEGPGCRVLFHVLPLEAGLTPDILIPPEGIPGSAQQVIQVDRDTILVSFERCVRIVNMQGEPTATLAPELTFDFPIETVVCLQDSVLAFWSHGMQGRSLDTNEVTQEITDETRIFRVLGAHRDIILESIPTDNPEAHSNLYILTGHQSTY
# Measurement conditions: at 1 µM
# inhibition per record follows

{"Compound": "Cc1cccc(-c2n[nH]cc2-c2ccc3ncccc3n2)n1", "inhibition [%]": 0.72}
{"Compound": "CS(=O)(=O)CCNCc1nc(-c2ccc3ncnc(Nc4ccc(F)c(Cl)c4)c3c2)cs1", "inhibition [%]": 2.52}
{"Compound": "COc1ccccc1Nc1ncc(-c2ccccc2)o1", "inhibition [%]": 4.63}
{"Compound": "COC(=O)Nc1nc2cc(Oc3cccc(NC(=O)Nc4cc(C(F)(F)F)ccc4F)c3)ccc2[nH]1", "inhibition [%]": 3.06}
{"Compound": "COc1ccc2cc(-c3c(-c4ccncc4)nc(-c4ccc([S+](C)[O-])cc4)n3C)ccc2c1 (stereo not given)", "inhibition [%]": 0.64}
